Molecular target: T1, recombinant TNFα, biotinylated (human, UniProt P01375 77-233, biotinylated using sulfo-NHS-LC-Biotin (sites not given))
T1 construct: human is stated in the abstract and claims; also called biotinylated TNFα; human TNFα
T1 sequence (P01375 77-233 limits assumed): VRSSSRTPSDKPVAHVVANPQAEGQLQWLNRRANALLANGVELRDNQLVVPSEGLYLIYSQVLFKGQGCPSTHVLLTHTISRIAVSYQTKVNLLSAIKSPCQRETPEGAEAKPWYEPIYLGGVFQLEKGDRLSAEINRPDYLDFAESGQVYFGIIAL
Assay: ELISA of lysates on biotinylated TNFα on streptavidin plate
Assay endpoint: binding result

>  <Binder>
Clone No. 74 (designed binder, F:G GGLSYLH) LPAPKNLVVSEVTEDSLRLSWTAPDAAFDSFLIQYQESEKVGEAINLTVPGSERSYDLTGLKPGTEYTVSIYGVGGLSYLHPLSAEFTT

>  <Assay endpoint>
binding result

>  <Measured value>
binds

$$$$
>  <Binder>
Clone No. 3 (designed binder, F:G EGLGVIH) LPAPKNLVVSEVTEDSLRLSWTAPDAAFDSFLIQYQESEKVGEAINLTVPGSERSYDLTGLKPGTEYTVSIYGVEGLGVIHPLSAEFTT

>  <Assay endpoint>
binding result

>  <Measured value>
binds

$$$$
>  <Binder>
Clone No. 7 (designed binder, F:G GGLTYIH) LPAPKNLVVSEVTEDSLRLSWTAPDAAFDSFLIQYQESEKVGEAINLTVPGSERSYDLTGLKPGTEYTVSIYGVGGLTYIHPLSAEFTT

>  <Assay endpoint>
binding result

>  <Measured value>
binds

$$$$
